- Tested on: MDA-MB-435
- test: NCI tumour cell line growth inhibition, 48 h
quantity kind: TGI

Which TGI value is on record for `C#CCOc1cccc(Nc2ncnc3c(NC(=O)CCl)cccc23)c1` ?
> 100 µM

----------
- System: SW-620 colon
- test: NCI tumour cell line growth inhibition, 48 h
quantity kind: TGI

These recorded examples may help you get a feel for the data.
Which TGI value is on record for CC(=O)OCC1OC(n2c(=O)[nH]c(=O)c3sccc32)C(Br)C1OC(C)=O (stereo unspecified) ?
> 100 µM

Now the same for `CC(C)CN=C(N)N=C(N)N`
> 100 µM

---
Which TGI value is on record for `CN1CCC(n2cnc(-c3ccc(F)cc3)c2-c2ccnc(N)n2)CC1` ?
> 25 µM

Now the same for `CCCCCn1sc(=O)n(Cc2ccc(CNC(=O)OCc3ccc4cccc(O)c4n3)cc2)c1=O`
2.83 µM

Now the same for `COc1ccc(C(Cl)=C(c2ccc(OCCN(C)C)cc2)c2ccc(OCCN(C)C)cc2)cc1`
2.75 µM

Now the same for `O=C(O)/C(Cl)=C(\Cl)C(=O)Nc1ccc(Cl)c(Cl)c1Cl`
35.3 µM

Now the same for `COc1cc(/C=C/[N+](=O)[O-])cc(Br)c1OC`
3.37 µM

Now the same for `CCn1c2ccccc2c2cc(/C=C(/C#N)C(N)=O)ccc21`
> 100 µM

Now the same for `C/C=C(\C)c1cc(O)c(C)c2c1Oc1cc(O)c(Cl)c(C)c1C(=O)O2`
37.4 µM

Now the same for `[N-]=[N+]=C1C(=O)C2CC3CC(C2)CC1C3`
> 100 µM

Now the same for `COc1cc(-c2cc(-c3cc([N+](=O)[O-])c(/C=N/NC(=O)c4ccncc4)o3)ccc2OC)ccc1C`
> 100 µM

Now the same for `O=C([CH-]C(=O)c1ccccc1)c1ccccc1.O=C([CH-]C(=O)c1ccccc1)c1ccccc1.[OH-].[OH-].[Ti+4]`
> 100 µM

----------
- System: PC-3 prostate
- test: NCI tumour cell line growth inhibition, 48 h; in the data active means GI50 below about 0.43 µM; inactive means the rest
Give your call using only these classes: y for active, n for inactive

Could you please tell me the result logged for CN1CCN(CC(O)COc2c(Br)c(Br)c(Br)c3c2OC(C)(C)C3)CC1 (stereo unspecified) in this assay?
n

Now the same for `COC(=O)c1nc(-c2ccccc2)oc1S(=O)(=O)n1nc(C)cc1N`
n

Now the same for CN(CCCCCl)P(=O)(OCCS(=O)(=O)CC(NC(=O)CCC(N)C(=O)O)C(=O)NC(C(=O)O)c1ccccc1)OCC1OC(n2cc(F)c(=O)[nH]c2=O)CC1O (stereo unspecified)
n

Now the same for `COc1cc(/C=C/[N+](=O)[O-])cc(Br)c1OC`
n

Now the same for `COc1ccc(/C=N/NC(=O)Cn2c(-c3ccc(S(C)(=O)=O)cc3)nc3cc(Cl)ccc32)cc1`
n

Now the same for COc1ccc(OC)c(C2SCC(=O)N2NC(=O)C(O)c2ccccc2)c1 (stereo unspecified)
n

Now the same for COc1ccc2cc(-c3c(-c4ccncc4)nc(-c4ccc(S(C)=O)cc4)n3C)ccc2c1 (stereo unspecified)
n

Now the same for `Nc1ccc(-c2nc3ccccc3[nH]2)c2ccccc12`
n

Now the same for COc1ccc(C2[C@@H](Cl)C(=O)N2c2cc(OC)c(OC)c(OC)c2)cc1Cl (stereo partly specified)
y

Now the same for `CC(C)(C)c1ccc(C(=O)Nc2sc3c(c2C(N)=O)CCC(=O)C3)cc1`
y

Now the same for `O=C(Oc1cccnc1)c1ccsc1Nc1ccnc(C(F)(F)F)c1`
n

----------
- Test system: OVCAR-4 ovarian
- test: NCI tumour cell line growth inhibition, 48 h
quantity kind: TGI

These recorded examples may help you get a feel for the data.
Query TGI on OVCAR-4 ovarian for `COc1ccc(OC)c(Cn2cc3c(c2)-c2oncc2CC3)c1`
> 100 µM

Now the same for CCOc1cc(NC(C)=O)ccc1C(=O)NN1C(=O)C(Cl)C1c1ccco1 (stereo not given)
33.3 µM

Now the same for OC1(c2ccccc2)CSC2=Nc3ccccc3C3CCN1N23 (stereo not given)
> 100 µM

Now the same for COc1ccc2c(c1)CCN1CCc3cc(OC)c(OC)cc3CC21 (stereo not given)
> 100 µM

Now the same for CCN1C(=O)N(CC)C2C1NN=c1s/c(=C\c3ccccc3Br)c(=O)n12 (stereo not given)
63 µM

---
Query TGI on OVCAR-4 ovarian for `Cc1c(C2=C(c3cn(C)c4ccccc34)C(=O)NC2=O)c2ccccc2n1C`
> 25 µM

Now the same for `CC(=O)c1c(C(F)(F)F)n([O-])c2ccc(C)cc2[n+]1=O`
> 100 µM

Now the same for COc1ccc2c(c1OC)C(=O)OC2C1c2c(c([N+](=O)[O-])c3c(c2OC)OCO3)CCN1C (stereo not given)
> 100 µM

Now the same for COc1ccc(OC)c(C2SCC(=O)N2NC(=O)C(O)c2ccccc2)c1 (stereo not given)
> 100 µM

Now the same for `O=[N+]([O-])c1cc(S(=O)(=O)Oc2ccccc2)ccc1Cl`
3.2 µM

----------
Each item that follows carries a reported TGI.
- Test system: HCT-116 colon
- test: NCI tumour cell line growth inhibition, 48 h

These recorded examples may help you get a feel for the data.
Query TGI on HCT-116 colon for `Cc1ccc2c(=O)cc(-c3ccc(-c4ccccc4)s3)[nH]c2n1`
> 100 µM

Now the same for COC(=O)C1=C(OC(=O)c2ccccc2)C(C(=O)OC)[C@]2(O)[C@@H](C(=O)OC)[C@H]1C[C@@H](c1ccccc1)[C@@H]2C(=O)OC (stereo partly specified)
14.2 µM

Now the same for `Cc1ccc2nc(NC(=O)/C(Cc3nc4ccc(Cl)cc4[nH]c3=O)=N\NC(C)(C)C)sc2c1`
> 100 µM

---
Query TGI on HCT-116 colon for `Cc1cc(N(CCC#N)CCC#N)ccc1/C=C1/N=C(c2ccccc2)N(N)C1=O`
> 100 µM

Now the same for `Brc1ccc(-c2cn3ccncc3n2)cc1`
> 100 µM

Now the same for COc1ccc2cc(-c3c(-c4ccncc4)nc(-c4ccc(S(C)=O)cc4)n3C)ccc2c1 (stereo unspecified)
> 25 µM

Now the same for `COc1ccc(-c2cc(=O)c3c(OC)c(OC)c(OC)c(OC)c3o2)cc1`
> 100 µM

Now the same for `C#CCOc1cccc(Nc2ncnc3c(NC(=O)CCl)cccc23)c1`
42.1 µM

Now the same for Cc1ccc(S(=O)OC2C3CC4CC(C3)CC2C4)cc1 (stereo unspecified)
> 100 µM

Now the same for `c1ccc(P(=Nc2ccccc2N=P(c2ccccc2)(c2ccccc2)c2ccccc2)(c2ccccc2)c2ccccc2)cc1`
9.64 µM

Now the same for `CCC[C@H](C)C[C@H](C)C[C@H](C)/C=C(\C)[C@@H](O)[C@@H](C)C(=O)CC`
33.9 µM

Now the same for `[N-]=[N+]=C1C(=O)C2CC3CC(C2)CC1C3`
> 100 µM

Now the same for `Cn1c2ccccc2n2c(=O)c3c(c(C#N)c12)CCCC3`
> 100 µM

Now the same for CC(C)[C@@H]1ON1C(C)c1ccccc1 (stereo partly specified)
> 100 µM

Now the same for CC1CN1c1c(C(=O)/C=C/c2ccccc2)c(-c2ccccc2)nn(C)c1=O (stereo unspecified)
33.2 µM

Now the same for `COc1cc(/C=C(/C#N)C(N)=O)ccc1O`
> 100 µM

Now the same for `N#Cc1ccc(N=Cc2c([O-])ccc3ccccc23)cc1.[C-]#[O+].[C-]#[O+].[Ir]`
26 µM

----------
- Tested on: SK-MEL-28 melanoma
- test: NCI tumour cell line growth inhibition, 48 h
Each item that follows carries a reported GI50.

These recorded examples may help you get a feel for the data.
Query GI50 on SK-MEL-28 melanoma for O=c1[nH]cnc2c(C3NC(CO)C(O)C3O)c[nH]c12 (stereo not given)
> 100 µM

Now the same for `Cc1cccc(NC(=O)c2sc3nc4c(cc3c2N)CN(Cc2ccccc2)CC4)c1C`
4.06 µM

Now the same for `CCN(Cc1ccc(Cl)s1)c1ccc(CO)c(Cl)c1`
11.8 µM

---
Query GI50 on SK-MEL-28 melanoma for `COC(=O)c1nc(-c2ccccc2)oc1S(=O)(=O)n1nc(C)cc1N`
14.7 µM

Now the same for CC(C)=CCC/C(C)=C/CC/C(C)=C/CC/C=C(\C)CC/C=C(\C)CCC(=O)Nc1ccn(C2OC(CO)C(O)C2(F)F)c(=O)n1 (stereo not given)
2.64 µM

----------
- System: HT29 colon
- test: NCI tumour cell line growth inhibition, 48 h
quantity kind: GI50

These recorded examples may help you get a feel for the data.
Which GI50 value is on record for `COC(=O)c1nc(-c2ccccc2)oc1S(=O)(=O)n1nc(C)cc1N` ?
16.4 µM

Now the same for COc1ccc2c(c1OC)C(=O)OC2C1c2c(c([N+](=O)[O-])c3c(c2OC)OCO3)CCN1C (stereo unspecified)
28.7 µM

Now the same for `CC(=O)c1c(C(F)(F)F)n([O-])c2ccc(C)cc2[n+]1=O`
4.96 µM

Now the same for COc1ccc(C2[C@@H](Cl)C(=O)N2c2cc(OC)c(OC)c(OC)c2)cc1Cl (stereo partly specified)
0.221 µM

Now the same for COC1O[C@@H]2C[C@H]3C(C)(C)CCC[C@]3(C)C3=CCCC1[C@@]32C (stereo partly specified)
> 100 µM

---
Which GI50 value is on record for CC1=CC(=O)C(O)C2(C)C1CC(O)C13COC4(C)C(OC(=O)C41)C(O)C23 (stereo unspecified) ?
9.02 µM

Now the same for `CN1CCC(n2cnc(-c3ccc(F)cc3)c2-c2ccnc(N)n2)CC1`
6.2 µM

Now the same for COc1ccc2cc(-c3c(-c4ccncc4)nc(-c4ccc(S(C)=O)cc4)n3C)ccc2c1 (stereo unspecified)
9.06 µM

Now the same for CCN1C(=O)N(CC)C2C1NN=c1s/c(=C3\C(=O)N(CCc4ccccc4)c4ccccc43)c(=O)n12 (stereo unspecified)
0.351 µM

Now the same for `COc1cc(/C=C/[N+](=O)[O-])cc(Br)c1OC`
1.81 µM

Now the same for CC1OC(O[C@H]2/C=C/C=C/C=C/C=C/C=C/C=C/C=C/[C@H](C)[C@@H](O)[C@@H](C)[C@H](C)OC(=O)CC(O)CC(O)CCC(O)C(O)CC(O)C[C@]3(O)C[C@H](O)C(C(=O)O)C(C2)O3)C(O)[C@H](N)C1O (stereo partly specified)
4.3 µM

Now the same for `CCCCn1c(=O)c2c(nc3n2CCCN3CCc2ccc(OCC(=O)NCCN(CC)CC)cc2)n(CCCC)c1=O`
1.91 µM

Now the same for `Cc1c(C2=C(c3cn(C)c4ccccc34)C(=O)NC2=O)c2ccccc2n1C`
1.12 µM

Now the same for CN(CCCCCl)P(=O)(OCCS(=O)(=O)CC(NC(=O)CCC(N)C(=O)O)C(=O)NC(C(=O)O)c1ccccc1)OCC1OC(n2cc(F)c(=O)[nH]c2=O)CC1O (stereo unspecified)
2.68 µM

Now the same for `N#CN1CC[C@H](C(=O)Nc2ncc(-c3ccncc3)s2)C1`
< 0.0197 µM

Now the same for `Nc1ccc(-c2nc3ccccc3[nH]2)c2ccccc12`
1.49 µM
